Tested on: LoVo cells
Procedure text: Growth inhibition of LoVo colon cancer cells
Format: cell-based
Condition set: Homo sapiens, Table IV, read-out: IC50 for inhibition of human colon cancer cell proliferation
Some compounds, each annotated with its measured pIC50.
Note: pIC50 values are expressed as the negative base-10 logarithm of concentration in M.

Example compounds with recorded pIC50:
O=C(O)c1cc(O)ccc1O [Gentisate, gentisic acid] | 2.35
O=C(O)CCNC(=O)c1ccc(/N=N/c2ccc(O)c(C(=O)O)c2)cc1 [Balsalazide] | 2.30
O=C(O)c1cc([N+](=O)[O-])ccc1O [5-NSA, 5-nitro-salicylate] | 2.86

// sample Nc1ccc(O)c(C(=O)O)c1 , its pIC50 was 1.99

###

Test system: HRT-18 cells
Procedure text: Growth inhibition of HRT-18 colon cancer cells
Type: cell-based
Condition set: Homo sapiens; HRT-18, Table IV; read-out: IC50 for inhibition of human colon cancer cell proliferation
Readout label: IC50
Just the number plus its unit, please.

Take a look at these entries with their results.
O=C(O)CCNC(=O)c1ccc(/N=N/c2ccc(O)c(C(=O)O)c2)cc1 [Balsalazide] | 3.88 mM
Nc1ccc(O)c(C(=O)O)c1 [5-ASA, 5-aminosalicylic acid] | 10.5 mM
O=C(O)c1cc([N+](=O)[O-])ccc1O [5-NSA, 5-nitro-salicylate] | 1.46 mM

--- query ---
O=C(O)c1cc(O)ccc1O [Gentisate, gentisic acid] yielded IC50 of 2.98 mM

###

Test system: LS174T cells
Procedure text: Dose response growth inhibition of LS174T cells, Sulforhodamine B dye binding assay
Format: cell-based, human
Condition set: Homo sapiens, text (FIG. 5), read-out: IC50
Readout label: pIC50
Expect pIC50 as a plain number equal to -log10 of the molar concentration.

Nc1ccc(O)c(C(=O)O)c1 | 1.94

Measured pIC50, O=C(O)CCNC(=O)c1ccc(/N=N/c2ccc(O)c(C(=O)O)c2)cc1 [Balsalazide] : 2.28

###

Tested on: HT-29 cells
Procedure text: Dose response growth inhibition of HT-29 cells, Sulforhodamine B dye binding assay
Format: cell-based, human
Condition set: Homo sapiens; HT-29, Table IV; read-out: IC50 for inhibition of human colon cancer cell proliferation
Readout label: IC50
Write down the value, and be sure its unit follows.

The cases that follow already have their IC50 on record.
O=C(O)CCNC(=O)c1ccc(/N=N/c2ccc(O)c(C(=O)O)c2)cc1 [Balsalazide] | 5.71 mM
Nc1ccc(O)c(C(=O)O)c1 | 11.9 mM
O=C(O)c1cc(O)ccc1O [Gentisate, gentisic acid] | 5.05 mM

The value of IC50 measured for the molecule O=C(O)c1cc([N+](=O)[O-])ccc1O [5-NSA, 5-nitro-salicylate] turned out to be 1.63 mM
